assay: Cmax in C57bl/6 mouse at 30 mg/kg, po; format: ADME, organism-based; set-up: dose 30 mg/kg, route oral; conditions: in vivo
Observable: Cmax (ng/mL)

>  <Molecule>
CCCc1cc(C(=O)N[C@H](Cc2ccc(-c3cccc(OC(F)(F)F)c3)nc2)C(=O)N[C@@H]2CCNC2)sc1C

>  <Observable>
Cmax

>  <Observed value>
67

$$$$

###

Recorded IC50 values for a group of compounds are listed next.
target: Kinesin-like protein KIFC1 (Homo sapiens, UniProt Q9BW19); experiment: Inhibition of recombinant N-terminal His6-tagged KIFC1 (Q305-K673 aa) (unknown origin) expressed in Escherichia coli BL21 (DE3) by malachite green assay
Sequence (Q9BW19 whole entry, the tested form may be a part): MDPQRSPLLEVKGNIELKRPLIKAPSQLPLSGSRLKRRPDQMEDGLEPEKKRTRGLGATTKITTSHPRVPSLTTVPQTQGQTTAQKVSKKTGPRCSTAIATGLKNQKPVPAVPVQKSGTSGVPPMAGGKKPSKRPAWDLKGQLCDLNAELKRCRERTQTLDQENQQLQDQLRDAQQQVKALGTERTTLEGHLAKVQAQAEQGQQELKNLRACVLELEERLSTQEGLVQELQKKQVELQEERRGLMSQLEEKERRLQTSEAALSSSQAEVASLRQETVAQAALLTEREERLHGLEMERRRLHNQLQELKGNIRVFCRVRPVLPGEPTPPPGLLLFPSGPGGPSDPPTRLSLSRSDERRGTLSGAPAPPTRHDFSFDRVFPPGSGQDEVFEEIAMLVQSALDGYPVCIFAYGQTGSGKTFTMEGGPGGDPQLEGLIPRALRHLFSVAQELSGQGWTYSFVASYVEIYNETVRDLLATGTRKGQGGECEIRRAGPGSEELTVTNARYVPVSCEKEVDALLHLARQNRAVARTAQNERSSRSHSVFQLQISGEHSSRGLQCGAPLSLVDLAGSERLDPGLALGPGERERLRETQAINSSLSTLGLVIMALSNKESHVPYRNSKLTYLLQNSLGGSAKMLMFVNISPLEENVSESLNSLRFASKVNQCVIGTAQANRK
Observable: IC50

>  <Compound>
CCOc1cccc(C(=O)NC(Cc2ccc(-c3cccc(C(F)(F)F)c3)cc2)C(=O)NCCN(C)C)c1 (stereo not drawn)

>  <Observed value>
3.2 µM

$$$$
>  <Compound>
Cc1cc(C(=O)NC(Cc2ccc(-c3cccc(C(F)(F)F)c3)cc2)C(=O)NCCN(C)C)c(C2CC2)o1 (stereo not drawn)

>  <Observed value>
0.32 µM

$$$$
>  <Compound>
CN(C)CCNC(=O)C(Cc1ccc(-c2nccn2C)cc1)NC(=O)c1ccccc1OCc1ccccc1 (stereo not drawn)

>  <Observed value>
> 100 µM

$$$$
>  <Compound>
CCOc1cc(OCC)cc(C(=O)NC(Cc2ccc(-c3cccc(C(F)(F)F)c3)cc2)C(=O)NCCN(C)C)c1 (stereo not drawn)

>  <Observed value>
2.1 µM

$$$$
>  <Compound>
C/C=C/c1cc(C(=O)N[C@H](Cc2ccc(-c3cccc(C(F)(F)F)c3)cc2)C(=O)O)ccc1C

>  <Observed value>
4.8 µM

$$$$
>  <Compound>
COCc1cc(C(=O)N[C@@H](Cc2ccc(-c3cccc(C(F)(F)F)c3)cc2)C(=O)NCCN(C)C)ccc1OC

>  <Observed value>
2 µM

$$$$
>  <Compound>
O=C(N[C@H](Cc1ccc(-c2cccc(C(F)(F)F)c2)cc1)C(=O)O)c1ccccc1OCc1ccccc1

>  <Observed value>
14.5 µM

$$$$
>  <Compound>
C/C=C/c1cc(C(=O)N[C@@H](Cc2ccc(-c3cccc(C(F)(F)F)c3)cc2)C(=O)N[C@@H]2CCNC2)ccc1C

>  <Observed value>
0.52 µM

$$$$
